The listing below reports IC50 for molecules tested on IKBKB (IKKβ) (Homo sapiens, UniProt O14920).
Sequence (O14920 whole entry): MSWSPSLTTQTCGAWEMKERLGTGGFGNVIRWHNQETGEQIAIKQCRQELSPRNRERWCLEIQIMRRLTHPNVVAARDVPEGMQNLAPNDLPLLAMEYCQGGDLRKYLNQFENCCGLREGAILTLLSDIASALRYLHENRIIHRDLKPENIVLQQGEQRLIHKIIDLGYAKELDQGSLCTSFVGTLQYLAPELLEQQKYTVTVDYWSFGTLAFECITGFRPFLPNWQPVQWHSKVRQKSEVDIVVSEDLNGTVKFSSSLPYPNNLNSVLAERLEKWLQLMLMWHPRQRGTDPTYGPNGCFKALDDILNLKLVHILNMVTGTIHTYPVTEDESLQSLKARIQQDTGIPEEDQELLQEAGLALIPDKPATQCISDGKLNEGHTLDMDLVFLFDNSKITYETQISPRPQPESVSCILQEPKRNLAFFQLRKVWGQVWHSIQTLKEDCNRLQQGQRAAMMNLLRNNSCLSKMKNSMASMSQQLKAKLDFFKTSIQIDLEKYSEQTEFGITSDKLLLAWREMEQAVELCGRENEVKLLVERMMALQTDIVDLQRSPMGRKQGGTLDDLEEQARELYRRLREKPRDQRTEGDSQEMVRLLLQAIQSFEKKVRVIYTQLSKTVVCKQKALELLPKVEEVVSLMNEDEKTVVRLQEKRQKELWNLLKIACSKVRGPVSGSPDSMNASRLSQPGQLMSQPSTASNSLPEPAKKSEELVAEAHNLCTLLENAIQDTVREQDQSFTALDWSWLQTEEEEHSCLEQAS

Cc1cc(-c2cc(C(N)=O)c(NC(N)=O)s2)ccc1OCC[C@H](N)C(=O)OC1CCCC1 : < 1 µM
NC(=O)Nc1sc(-c2ccc(CCC[C@H](N)C(=O)OC3CCCC3)cc2)cc1C(N)=O : < 1 µM

Switching to the query record.
## Input Quick check: IC50 of `Cc1cc(-c2cc(C(N)=O)c(NC(N)=O)s2)ccc1OCC[C@H](N)C(=O)O` ?
## Output < 1 µM

====

system: human whole blood; test: LPS-stimulation of human whole blood, TNF-α release; format: cell-based; settings: LPS 100 ng/ml, 6 hrs, inhibitor added 2 hrs before, read-out: Inhibitor activity versus human whole blood TNFα release
pIC50: −log10 of the molar value.
Measured pIC50 of individual entries

Worked cases, pIC50 given:
NC(=O)Nc1sc(-c2ccc(OCC[C@H](N)C(=O)OC3CCCC3)c(Cl)c2)cc1C(N)=O [Example 8] : < 5.30
NC(=O)Nc1sc(-c2ccc(OCCC[C@H](N)C(=O)OC3CCCC3)cc2)cc1C(N)=O [Example 3] : < 5.30
NC(=O)Nc1sc(-c2ccc(/C=C/C[C@H](N)C(=O)OC3CCCC3)cc2Cl)cc1C(N)=O [Example 13] : 5.30 to 6.00
Cc1cc(-c2cc(C(N)=O)c(NC(N)=O)s2)ccc1/C=C/C[C@H](N)C(=O)OC1CCCC1 [Example 14] : > 6.00
NC(=O)Nc1sc(-c2ccc(OCC[C@@H](N)C(=O)OC3CCCC3)cc2)cc1C(N)=O [Example 1] : 5.30 to 6.00

Moving on to the next compound.
## Input Would you mind telling me what pIC50 value was observed for NC(=O)Nc1sc(-c2ccc(/C=C\C[C@H](N)C(=O)OC3CCCC3)cc2)cc1C(N)=O [Example 18] ?
## Output 5.30 to 6.00

====

test system: human whole blood; assay: LPS-stimulation of human whole blood, TNF-α release; type: cell-based; conditions: LPS 100 ng/ml, 6 hrs, inhibitor added 2 hrs before, read-out: Inhibitor activity versus human whole blood TNFα release
measured.quantity: IC50

## Input What is its IC50 for human whole blood? Entry: `NC(=O)Nc1sc(-c2ccc(C#CC[C@H](N)C(=O)OC3CCCC3)cc2)cc1C(N)=O`
## Output > 5 µM

====

system: human whole blood; assay: LPS-stimulation of human whole blood, TNF-α release; format: cell-based; conditions: LPS 100 ng/ml, 6 hrs, inhibitor added 2 hrs before, read-out: Inhibitor activity versus human whole blood TNFα release
measured.quantity: IC50

These recorded examples may help you get a feel for the data.
NC(=O)Nc1sc(-c2ccc(/C=C/C[C@H](N)C(=O)OC3CCCC3)cc2)cc1C(N)=O : < 1 µM
Cc1cc(OCC[C@H](N)C(=O)OC2CCCC2)ccc1-c1cc(C(N)=O)c(NC(N)=O)s1 : > 5 µM
NC(=O)Nc1sc(-c2ccc(/C=C/C[C@@H](N)C(=O)OC3CCCC3)cc2)cc1C(N)=O : < 1 µM

## Input What does the record list as IC50 for `NC(=O)Nc1sc(-c2ccc(CCC[C@H](N)C(=O)OC3CCCC3)cc2)cc1C(N)=O` ?
## Output 1 to 5 µM

## Input Which value of IC50 has been reported for `Cc1cc(-c2cc(C(N)=O)c(NC(N)=O)s2)ccc1OCC[C@H](N)C(=O)OC1CCCC1` in the records?
## Output > 5 µM

## Input Entry `NC(=O)Nc1sc(-c2ccc(C[C@H](N)C(=O)OC3CCCC3)cc2)cc1C(N)=O` : reported IC50 = ?
## Output 1 to 5 µM

## Input Can you share its IC50? I mean this compound: `NC(=O)Nc1sc(-c2ccc(OCC[C@H](N)C(=O)OC3CCCC3)cc2Cl)cc1C(N)=O`
## Output > 5 µM
